B1: scFv; the commonest letter at each place (parent)
chain 1: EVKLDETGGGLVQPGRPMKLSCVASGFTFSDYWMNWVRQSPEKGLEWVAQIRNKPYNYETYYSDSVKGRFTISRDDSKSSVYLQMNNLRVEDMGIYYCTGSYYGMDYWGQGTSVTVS
chain 2: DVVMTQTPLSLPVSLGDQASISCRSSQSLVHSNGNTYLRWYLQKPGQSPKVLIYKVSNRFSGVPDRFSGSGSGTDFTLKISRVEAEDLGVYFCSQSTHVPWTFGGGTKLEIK

variants of: B1; assay: yeast surface expression (ratio to wild type); higher = more expressed; conditions: format: scFv 4-4-20, heavy + light
So I've got a bunch of variants here, and I need their yeast surface expression values.
I only need the number, thanks.

Prompt line: // returns reported yeast surface expression for input chain 1 G100I Y103F
Response line: 0.932

Prompt line: // returns reported yeast surface expression for input chain 1 S101A
Response line: 0.836

Prompt line: // returns reported yeast surface expression for input chain 1 Y32S N35G V37K
Response line: 0.649

Prompt line: // returns reported yeast surface expression for input chain 1 W33C W36G
Response line: 1.12

Prompt line: // returns reported yeast surface expression for input chain 1 T28W D31Y
Response line: 0.371

Prompt line: // returns reported yeast surface expression for input chain 1 D31Y W33C
Response line: 0.597

Prompt line: // returns reported yeast surface expression for input chain 1 Y107N G109S
Response line: 0.836

Prompt line: // returns reported yeast surface expression for input chain 1 F29C V37M
Response line: 0.763

Prompt line: // returns reported yeast surface expression for input chain 1 Y107L G109V
Response line: 0.298

Prompt line: // returns reported yeast surface expression for input chain 1 Y32N
Response line: 1.21

Prompt line: // returns reported yeast surface expression for input chain 1 F29G W36M
Response line: 0.478

Prompt line: // returns reported yeast surface expression for input chain 1 F29N W33P
Response line: 0.333

Prompt line: // returns reported yeast surface expression for input chain 1 F29S V37C
Response line: 0.758

Prompt line: // returns reported yeast surface expression for input chain 1 M105C
Response line: 0.861

Prompt line: // returns reported yeast surface expression for input chain 1 F29D N35F W36G
Response line: 0.644

Prompt line: // returns reported yeast surface expression for input chain 1 Y103F W108K
Response line: 0.318

Prompt line: // returns reported yeast surface expression for input chain 1 G100I S101Y Y107A
Response line: 0.466

Prompt line: // returns reported yeast surface expression for input chain 1 G100F Y102D
Response line: 0.974

Prompt line: // returns reported yeast surface expression for input chain 1 Y103L M105G
Response line: 1.02

Prompt line: // returns reported yeast surface expression for input chain 1 W108L G109I
Response line: 0.203

Prompt line: // returns reported yeast surface expression for input chain 1 Y103D Y107C
Response line: 0.646

Prompt line: // returns reported yeast surface expression for input chain 1 S30D
Response line: 0.919

Prompt line: // returns reported yeast surface expression for input chain 1 T28R W33G
Response line: 0.684

Prompt line: // returns reported yeast surface expression for input chain 1 V37H
Response line: 0.831

Prompt line: // returns reported yeast surface expression for input chain 1 M105Y W108N
Response line: 0.301

Prompt line: // returns reported yeast surface expression for input chain 1 S30W D31V
Response line: 0.463

Prompt line: // returns reported yeast surface expression for input chain 1 D106A W108V
Response line: 0.529

Prompt line: // returns reported yeast surface expression for input chain 1 S30C W36G
Response line: 0.208

Prompt line: // returns reported yeast surface expression for input chain 1 G104T W108A
Response line: 0.326

Prompt line: // returns reported yeast surface expression for input chain 1 F29C V37E
Response line: 0.973

Prompt line: // returns reported yeast surface expression for input chain 1 V37K
Response line: 0.351

Prompt line: // returns reported yeast surface expression for input chain 1 T28R V37P
Response line: 1.99

Prompt line: // returns reported yeast surface expression for input chain 1 G100N Y102Q
Response line: 0.746

Prompt line: // returns reported yeast surface expression for input chain 1 Y32G
Response line: 0.961

Prompt line: // returns reported yeast surface expression for input chain 1 W33T M34W
Response line: 0.967

Prompt line: // returns reported yeast surface expression for input chain 1 Y107E W108K
Response line: 0.513
